Measurement Parameters: in n-hexanol, 298.2 K
Observation Type: solubility (mole fraction)
Please state the value as a number alone, without comment.

# input Consider the compound `C=C(C)[C@@H]1CC[C@]2(CO)CC[C@]3(C)[C@H](CC[C@@H]4[C@@]5(C)CC[C@H](O)C(C)(C)[C@@H]5CC[C@]43C)[C@@H]12` and give its measured solubility (mole fraction).
# output 0.00102

* * *

Measurement Parameters: in n-propanol, 308.2 K
Observation Type: solubility (mole fraction)
Please state the value as a number alone, without comment.

# input Consider the molecule `C=C(C)[C@@H]1CC[C@]2(CO)CC[C@]3(C)[C@H](CC[C@@H]4[C@@]5(C)CC[C@H](O)C(C)(C)[C@@H]5CC[C@]43C)[C@@H]12` and give its measured solubility (mole fraction).
# output 0.0016

* * *

Measurement Parameters: in chloroform, 288.2 K
Observation Type: solubility (mole fraction)
Please state the value as a number alone, without comment.

# input Consider the compound `C=C(C)[C@@H]1CC[C@]2(CO)CC[C@]3(C)[C@H](CC[C@@H]4[C@@]5(C)CC[C@H](O)C(C)(C)[C@@H]5CC[C@]43C)[C@@H]12` and give its measured solubility (mole fraction).
# output 0.00338

* * *

Measurement Parameters: in cyclohexane, 283.2 K
Observation Type: solubility (mole fraction)
Please state the value as a number alone, without comment.

# input Consider the compound `C=C(C)[C@@H]1CC[C@]2(CO)CC[C@]3(C)[C@H](CC[C@@H]4[C@@]5(C)CC[C@H](O)C(C)(C)[C@@H]5CC[C@]43C)[C@@H]12` and give its measured solubility (mole fraction).
# output 1.68e-05

* * *

Measurement Parameters: in acetone, 308.2 K
Observation Type: solubility (mole fraction)
Please state the value as a number alone, without comment.

# input Consider the compound `C=C(C)[C@@H]1CC[C@]2(CO)CC[C@]3(C)[C@H](CC[C@@H]4[C@@]5(C)CC[C@H](O)C(C)(C)[C@@H]5CC[C@]43C)[C@@H]12` and give its measured solubility (mole fraction).
# output 0.00227

* * *

Measurement Parameters: in ethyl acetate, 308.2 K
Observation Type: solubility (mole fraction)
Please state the value as a number alone, without comment.

# input Consider the compound `C=C(C)[C@@H]1CC[C@]2(CO)CC[C@]3(C)[C@H](CC[C@@H]4[C@@]5(C)CC[C@H](O)C(C)(C)[C@@H]5CC[C@]43C)[C@@H]12` and give its measured solubility (mole fraction).
# output 0.00305

* * *

Measurement Parameters: in methyl formate, 288.2 K
Observation Type: solubility (mole fraction)
Please state the value as a number alone, without comment.

# input Consider the compound `C=C(C)[C@@H]1CC[C@]2(CO)CC[C@]3(C)[C@H](CC[C@@H]4[C@@]5(C)CC[C@H](O)C(C)(C)[C@@H]5CC[C@]43C)[C@@H]12` and give its measured solubility (mole fraction).
# output 0.000257

* * *

Measurement Parameters: in ethanol, 278.2 K
Observation Type: solubility (mole fraction)
Please state the value as a number alone, without comment.

# input Consider the compound `C=C(C)[C@@H]1CC[C@]2(CO)CC[C@]3(C)[C@H](CC[C@@H]4[C@@]5(C)CC[C@H](O)C(C)(C)[C@@H]5CC[C@]43C)[C@@H]12` and give its measured solubility (mole fraction).
# output 0.000579

* * *

Measurement Parameters: in n-butanol, 308.2 K
Observation Type: solubility (mole fraction)

# input Consider the compound `C=C(C)[C@@H]1CC[C@]2(CO)CC[C@]3(C)[C@H](CC[C@@H]4[C@@]5(C)CC[C@H](O)C(C)(C)[C@@H]5CC[C@]43C)[C@@H]12` and give its measured solubility (mole fraction).
# output 0.00271

* * *

Measurement Parameters: in n-pentanol, 278.2 K
Observation Type: solubility (mole fraction)
Please state the value as a number alone, without comment.

# input Consider the compound `C=C(C)[C@@H]1CC[C@]2(CO)CC[C@]3(C)[C@H](CC[C@@H]4[C@@]5(C)CC[C@H](O)C(C)(C)[C@@H]5CC[C@]43C)[C@@H]12` and give its measured solubility (mole fraction).
# output 0.00095

* * *

Measurement Parameters: in acetone, 278.2 K
Observation Type: solubility (mole fraction)

# input Consider the molecule `C=C(C)[C@@H]1CC[C@]2(CO)CC[C@]3(C)[C@H](CC[C@@H]4[C@@]5(C)CC[C@H](O)C(C)(C)[C@@H]5CC[C@]43C)[C@@H]12` and give its measured solubility (mole fraction).
# output 0.000556

* * *

Measurement Parameters: in ethyl acetate, 298.2 K
Observation Type: solubility (mole fraction)

# input Consider the compound `C=C(C)[C@@H]1CC[C@]2(CO)CC[C@]3(C)[C@H](CC[C@@H]4[C@@]5(C)CC[C@H](O)C(C)(C)[C@@H]5CC[C@]43C)[C@@H]12` and give its measured solubility (mole fraction).
# output 0.00207

* * *

Measurement Parameters: in ethyl formate, 298.2 K
Observation Type: solubility (mole fraction)

# input Consider the compound `C=C(C)[C@@H]1CC[C@]2(CO)CC[C@]3(C)[C@H](CC[C@@H]4[C@@]5(C)CC[C@H](O)C(C)(C)[C@@H]5CC[C@]43C)[C@@H]12` and give its measured solubility (mole fraction).
# output 0.000333

* * *

Measurement Parameters: in n-butanol, 298.2 K
Observation Type: solubility (mole fraction)

# input Consider the compound `C=C(C)[C@@H]1CC[C@]2(CO)CC[C@]3(C)[C@H](CC[C@@H]4[C@@]5(C)CC[C@H](O)C(C)(C)[C@@H]5CC[C@]43C)[C@@H]12` and give its measured solubility (mole fraction).
# output 0.00238

* * *

Measurement Parameters: in n-butanol, 278.2 K
Observation Type: solubility (mole fraction)
Please state the value as a number alone, without comment.

# input Consider the compound `C=C(C)[C@@H]1CC[C@]2(CO)CC[C@]3(C)[C@H](CC[C@@H]4[C@@]5(C)CC[C@H](O)C(C)(C)[C@@H]5CC[C@]43C)[C@@H]12` and give its measured solubility (mole fraction).
# output 0.00181

* * *

Measurement Parameters: in ethyl acetate, 288.2 K
Observation Type: solubility (mole fraction)
Please state the value as a number alone, without comment.

# input Consider the compound `C=C(C)[C@@H]1CC[C@]2(CO)CC[C@]3(C)[C@H](CC[C@@H]4[C@@]5(C)CC[C@H](O)C(C)(C)[C@@H]5CC[C@]43C)[C@@H]12` and give its measured solubility (mole fraction).
# output 0.00155

* * *

Measurement Parameters: in dichloromethane, 278.2 K
Observation Type: solubility (mole fraction)
Please state the value as a number alone, without comment.

# input Consider the compound `C=C(C)[C@@H]1CC[C@]2(CO)CC[C@]3(C)[C@H](CC[C@@H]4[C@@]5(C)CC[C@H](O)C(C)(C)[C@@H]5CC[C@]43C)[C@@H]12` and give its measured solubility (mole fraction).
# output 0.00079

* * *

Measurement Parameters: in n-propanol, 298.2 K
Observation Type: solubility (mole fraction)

# input Consider the molecule `C=C(C)[C@@H]1CC[C@]2(CO)CC[C@]3(C)[C@H](CC[C@@H]4[C@@]5(C)CC[C@H](O)C(C)(C)[C@@H]5CC[C@]43C)[C@@H]12` and give its measured solubility (mole fraction).
# output 0.00146

* * *

Measurement Parameters: in methyl acetate, 298.2 K
Observation Type: solubility (mole fraction)
Please state the value as a number alone, without comment.

# input Consider the molecule `C=C(C)[C@@H]1CC[C@]2(CO)CC[C@]3(C)[C@H](CC[C@@H]4[C@@]5(C)CC[C@H](O)C(C)(C)[C@@H]5CC[C@]43C)[C@@H]12` and give its measured solubility (mole fraction).
# output 0.000797

* * *

Measurement Parameters: in n-propanol, 278.2 K
Observation Type: solubility (mole fraction)
Please state the value as a number alone, without comment.

# input Consider the compound `C=C(C)[C@@H]1CC[C@]2(CO)CC[C@]3(C)[C@H](CC[C@@H]4[C@@]5(C)CC[C@H](O)C(C)(C)[C@@H]5CC[C@]43C)[C@@H]12` and give its measured solubility (mole fraction).
# output 0.00113

* * *

Measurement Parameters: in chloroform, 308.2 K
Observation Type: solubility (mole fraction)
Please state the value as a number alone, without comment.

# input Consider the molecule `C=C(C)[C@@H]1CC[C@]2(CO)CC[C@]3(C)[C@H](CC[C@@H]4[C@@]5(C)CC[C@H](O)C(C)(C)[C@@H]5CC[C@]43C)[C@@H]12` and give its measured solubility (mole fraction).
# output 0.00511

* * *

Measurement Parameters: in n-butanol, 288.2 K
Observation Type: solubility (mole fraction)
Please state the value as a number alone, without comment.

# input Consider the compound `C=C(C)[C@@H]1CC[C@]2(CO)CC[C@]3(C)[C@H](CC[C@@H]4[C@@]5(C)CC[C@H](O)C(C)(C)[C@@H]5CC[C@]43C)[C@@H]12` and give its measured solubility (mole fraction).
# output 0.00213

* * *

Measurement Parameters: in cyclohexane, 288.2 K
Observation Type: solubility (mole fraction)
Please state the value as a number alone, without comment.

# input Consider the compound `C=C(C)[C@@H]1CC[C@]2(CO)CC[C@]3(C)[C@H](CC[C@@H]4[C@@]5(C)CC[C@H](O)C(C)(C)[C@@H]5CC[C@]43C)[C@@H]12` and give its measured solubility (mole fraction).
# output 2.7e-05

The measured values listed here are drawn from BigSolDB 2.1.
